Data credit: ChEMBL document CHEMBL1201862

Recorded measurements of GI50, one per entry
# Tested on: LOX IMVI
# protocol-description: NCI tumour cell line growth inhibition, 48 h
Active and inactive are the calls of the source. No stated cut-off is given here; in the data, active = GI50 up to about 1.1 µM and inactive = higher.

// below: answered compounds
Cc1cccc2c(N)c3cccc(C(=O)NCC[N+](C)(C)[O-])c3nc12
10.4 µM (inactive)
O=S(=O)(/C=C/c1ccc(Cl)cc1Cl)Cc1ccccc1CS(=O)(=O)/C=C/c1ccc(Cl)cc1Cl
> 100 µM (inactive)
COCn1c2ccc(OC(C)=O)cc2c2c(=O)oc(C)nc21
> 100 µM (inactive)

Item: Cc1cc(C(=O)CSC(=S)SC(C)(C)C)ccc1Cl | GI50: 19.9 µM (inactive)

Item: COc1cc(C(C)=O)cc(C(=O)N(C(C)C)C(C)C)c1[Si](C)(C)C | GI50: > 100 µM (inactive)

Item: CN(C)c1ccc(/C=C(\NC(=O)c2ccccc2)C(=O)NC(CCC(=O)O)C(=O)O)cc1 (stereo not given) | GI50: > 100 µM (inactive)

Item: CC#CC(=O)Nc1ccccc1CC(c1c[nH]c2ccccc12)c1c[nH]c2ccccc12 | GI50: 15.2 µM (inactive)

Item: C[C@]12CC[C@@H]3c4ccc(OP(=O)(O)O)cc4CC[C@H]3[C@@H]1CCC2=O | GI50: 95.9 µM (inactive)

Item: CC1(c2ccc(F)cc2)CC(c2ccc(F)cc2)=C(C#N)C(=C(C#N)C#N)N1 (stereo not given) | GI50: 18.6 µM (inactive)

Item: C[C@@H](NS(=O)(=O)c1ccc(NC(=O)c2ccccc2)cc1)C(=O)O | GI50: > 100 µM (inactive)
